Collected set of pIC50 measured with Lysine-specific demethylase 4C (Homo sapiens, UniProt Q9H3R0) across studies.
Sequence (Q9H3R0 whole entry): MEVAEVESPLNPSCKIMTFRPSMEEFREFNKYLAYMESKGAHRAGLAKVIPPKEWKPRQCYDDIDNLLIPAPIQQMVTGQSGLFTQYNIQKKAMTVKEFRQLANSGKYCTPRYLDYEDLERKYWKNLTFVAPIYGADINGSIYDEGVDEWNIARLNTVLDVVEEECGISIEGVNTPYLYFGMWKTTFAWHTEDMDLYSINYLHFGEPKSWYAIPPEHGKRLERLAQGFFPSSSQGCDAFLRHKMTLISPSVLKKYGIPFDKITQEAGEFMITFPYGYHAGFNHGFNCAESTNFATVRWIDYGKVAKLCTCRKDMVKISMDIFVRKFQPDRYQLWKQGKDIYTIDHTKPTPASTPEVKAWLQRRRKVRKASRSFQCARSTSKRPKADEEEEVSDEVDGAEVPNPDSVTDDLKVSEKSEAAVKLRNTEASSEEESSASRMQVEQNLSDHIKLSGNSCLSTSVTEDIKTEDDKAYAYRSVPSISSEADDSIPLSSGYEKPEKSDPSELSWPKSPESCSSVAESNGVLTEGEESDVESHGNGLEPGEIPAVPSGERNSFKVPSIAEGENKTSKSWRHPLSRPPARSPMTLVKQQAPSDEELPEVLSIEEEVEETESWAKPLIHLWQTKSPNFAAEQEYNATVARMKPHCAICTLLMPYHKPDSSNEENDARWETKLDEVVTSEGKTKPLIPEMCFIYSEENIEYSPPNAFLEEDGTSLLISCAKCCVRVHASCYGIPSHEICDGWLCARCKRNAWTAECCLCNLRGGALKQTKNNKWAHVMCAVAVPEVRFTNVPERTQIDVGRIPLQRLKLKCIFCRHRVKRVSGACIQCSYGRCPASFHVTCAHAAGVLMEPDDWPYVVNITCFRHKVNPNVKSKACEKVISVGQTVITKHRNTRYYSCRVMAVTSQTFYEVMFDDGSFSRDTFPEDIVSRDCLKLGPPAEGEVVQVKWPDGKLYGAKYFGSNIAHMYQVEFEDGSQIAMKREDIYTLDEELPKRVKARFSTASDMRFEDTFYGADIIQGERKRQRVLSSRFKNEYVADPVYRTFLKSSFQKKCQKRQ
pIC50: −log10 of the molar value.

query: GET pIC50 | system: Lysine-specific demethylase 4C (Homo sapiens, UniProt Q9H3R0) | item: CCN(CCN(C)C)C(=O)CNCc1cc(C(=O)O)ccn1
result: 6.68

query: GET pIC50 | system: Lysine-specific demethylase 4C (Homo sapiens, UniProt Q9H3R0) | item: COc1ccc(N2CCN(C)CC2)cc1N(C)c1ccc(Oc2nc(O)c3ccncc3n2)cc1C
result: > 7.00

query: Fetch value of pIC50 on Lysine-specific demethylase 4C (Homo sapiens, UniProt Q9H3R0) for O=c1[nH]c(Oc2cnn(Cc3ccccc3)c2)nc2cnccc12 .
result: 5.29

query: // output pIC50; input Cc1cc(Oc2nc(O)c3ccncc3n2)ccc1N(C)c1cc(N2CCN(C)CC2)ccc1C ; system Lysine-specific demethylase 4C (Homo sapiens, UniProt Q9H3R0)
result: > 7.00

query: Report pIC50 from Lysine-specific demethylase 4C (Homo sapiens, UniProt Q9H3R0) testing of CN1CN(Cc2ccccc2)CC1=S
result: < 3.70

query: Identify measured pIC50 obtained with Lysine-specific demethylase 4C (Homo sapiens, UniProt Q9H3R0) for OCC1C(Cl)N=NN1c1ccccc1 (stereo unspecified) .
result: < 3.70
